The measurements presented in this section are drawn from ChEMBL document CHEMBL1140523.

In this section we review reported half-life values for a set of molecules.
Assay: Half life in Sprague-Dawley rat at 1 mg/kg, iv or 3 mg/kg, po
Type: ADME, organism-based
Details: Sprague-Dawley, in vivo
Kindly report the value followed by its unit.

**Q:** I would be grateful if you could share the reported half-life for `CC(C)N1C(=O)[C@H](NC(=O)[C@@H](Cc2ccccc2OC(F)(F)F)NC(=O)OC(C)(C)C)CCc2cc(Cl)ccc21` .
**A:** 3 h

Next item in the queue.
**Q:** I'd like to know its half-life. The molecule in question is `CC(C)N1C(=O)[C@H](NC(=O)[C@@H](Cc2ccccc2OC(F)(F)F)NC(=O)C(C)(C(F)(F)F)C(F)(F)F)CCc2ccccc21`
**A:** 2.5 h

* * *

Assay: Oral bioavailability in Sprague-Dawley rat at 3 mg/kg
Format: ADME, organism-based
Settings: Sprague-Dawley, in vivo
RECORDED_METRIC: bioavailability (%)
# output: bare number, implied unit %

Solved entries (count: 3):
**Q:** For the compound `CC(C)N1C(=O)[C@H](NC(=O)[C@@H](Cc2ccccc2OC(F)(F)F)NC(=O)c2ccc(F)cc2C(F)(F)F)CCc2cc(Cl)ccc21` , what bioavailability is on record?
**A:** 65

**Q:** Another compound: `CC(C)N1C(=O)[C@H](NC(=O)[C@@H](Cc2ccccc2OC(F)(F)F)NC(=O)OC(C)(C)C)COc2ccccc21`
**A:** 25

**Q:** Likewise for `CC(C)N1C(=O)[C@H](NC(=O)[C@@H](Cc2ccccc2F)NC(=O)c2ccc(F)cc2C(F)(F)F)CCc2cc(Cl)ccc21` ?
**A:** 90

---
**Q:** Name the reported bioavailability value associated with the compound `CC(C)N1C(=O)[C@H](NC(=O)[C@@H](Cc2c(F)cccc2F)NC(=O)c2ccc(F)cc2C(F)(F)F)CCc2cc(Cl)ccc21`
**A:** 68

**Q:** Next: `CC(C)N1C(=O)[C@H](NC(=O)[C@@H](Cc2ccccc2OC(F)(F)F)NC(=O)c2ccccn2)CCc2ccccc21`
**A:** 60

* * *

Biological target: Sodium channel protein type 9 subunit alpha (Homo sapiens, UniProt Q15858)
Sequence (Q15858 whole entry): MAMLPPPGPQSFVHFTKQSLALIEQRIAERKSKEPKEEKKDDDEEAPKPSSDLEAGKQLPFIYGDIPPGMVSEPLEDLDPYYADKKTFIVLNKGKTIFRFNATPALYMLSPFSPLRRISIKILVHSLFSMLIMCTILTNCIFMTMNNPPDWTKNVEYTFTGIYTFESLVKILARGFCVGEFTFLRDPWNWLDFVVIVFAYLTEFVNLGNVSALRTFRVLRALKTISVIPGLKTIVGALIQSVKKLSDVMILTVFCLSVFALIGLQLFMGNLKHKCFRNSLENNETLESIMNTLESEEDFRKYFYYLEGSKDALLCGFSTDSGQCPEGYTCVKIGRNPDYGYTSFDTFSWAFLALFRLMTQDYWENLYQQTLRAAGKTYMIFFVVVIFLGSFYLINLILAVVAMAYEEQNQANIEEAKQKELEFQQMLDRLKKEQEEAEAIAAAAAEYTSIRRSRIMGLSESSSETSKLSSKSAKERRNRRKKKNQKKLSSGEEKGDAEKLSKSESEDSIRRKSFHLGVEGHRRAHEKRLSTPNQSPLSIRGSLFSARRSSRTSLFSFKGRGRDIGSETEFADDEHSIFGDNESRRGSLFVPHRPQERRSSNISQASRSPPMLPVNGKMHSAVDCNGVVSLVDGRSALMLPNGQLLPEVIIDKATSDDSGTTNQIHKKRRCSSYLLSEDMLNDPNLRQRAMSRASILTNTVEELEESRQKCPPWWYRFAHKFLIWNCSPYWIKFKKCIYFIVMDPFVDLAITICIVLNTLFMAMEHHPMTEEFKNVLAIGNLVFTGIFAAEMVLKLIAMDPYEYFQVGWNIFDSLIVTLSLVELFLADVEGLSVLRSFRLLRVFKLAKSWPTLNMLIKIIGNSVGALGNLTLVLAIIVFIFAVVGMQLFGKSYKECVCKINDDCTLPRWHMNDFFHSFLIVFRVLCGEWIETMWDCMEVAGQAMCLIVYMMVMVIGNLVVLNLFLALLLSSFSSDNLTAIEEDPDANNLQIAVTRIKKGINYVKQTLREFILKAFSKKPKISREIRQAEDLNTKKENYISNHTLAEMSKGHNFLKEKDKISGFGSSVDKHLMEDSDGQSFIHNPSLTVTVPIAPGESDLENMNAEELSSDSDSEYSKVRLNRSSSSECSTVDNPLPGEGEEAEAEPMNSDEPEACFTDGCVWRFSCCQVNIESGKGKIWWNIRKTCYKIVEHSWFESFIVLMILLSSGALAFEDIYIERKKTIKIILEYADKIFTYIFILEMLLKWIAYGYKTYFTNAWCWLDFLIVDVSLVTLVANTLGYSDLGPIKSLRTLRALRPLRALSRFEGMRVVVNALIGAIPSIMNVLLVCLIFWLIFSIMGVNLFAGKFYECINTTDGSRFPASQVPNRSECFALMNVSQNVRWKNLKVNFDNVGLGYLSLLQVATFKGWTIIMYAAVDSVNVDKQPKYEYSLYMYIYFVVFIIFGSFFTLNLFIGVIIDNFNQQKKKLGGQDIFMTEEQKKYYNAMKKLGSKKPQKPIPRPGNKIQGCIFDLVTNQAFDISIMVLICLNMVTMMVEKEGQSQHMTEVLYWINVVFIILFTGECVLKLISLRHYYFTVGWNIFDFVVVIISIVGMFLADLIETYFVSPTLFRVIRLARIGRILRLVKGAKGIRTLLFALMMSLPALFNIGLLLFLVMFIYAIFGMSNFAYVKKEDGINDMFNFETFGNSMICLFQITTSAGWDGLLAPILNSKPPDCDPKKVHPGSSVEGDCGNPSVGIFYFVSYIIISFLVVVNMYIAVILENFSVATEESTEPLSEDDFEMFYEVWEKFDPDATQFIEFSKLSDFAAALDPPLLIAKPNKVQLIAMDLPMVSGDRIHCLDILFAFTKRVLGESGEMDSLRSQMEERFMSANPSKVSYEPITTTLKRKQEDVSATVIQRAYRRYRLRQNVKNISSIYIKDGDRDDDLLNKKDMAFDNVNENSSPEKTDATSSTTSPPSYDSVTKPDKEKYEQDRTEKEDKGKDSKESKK
Experiment: Inhibition of human sodium channel Nav1.7 by FRET assay
pIC50: −log10 of the molar value.
RECORDED_METRIC: pIC50

Consider the reported pIC50 for these molecules:
**Q:** Find the recorded pIC50 belonging to `CC(C)N1C(=O)[C@H](NC(=O)[C@@H](Cc2ccc(F)cc2F)NC(=O)c2ccc(F)cc2C(F)(F)F)CCc2cc(Cl)ccc21` and report it.
**A:** < 6.00

**Q:** Would you mind doing `CC(C)N1C(=O)[C@H](NC(=O)[C@@H](Cc2ccccc2OC(F)(F)F)NC(=O)c2ncccn2)CCc2ccccc21` as well?
**A:** < 6.00

// moving on: another record for pIC50
**Q:** # lookup: pIC50 of `CC(=O)N[C@H](Cc1ccccc1OC(F)(F)F)C(=O)N[C@@H]1CCc2ccccc2N(C(C)C)C1=O`
**A:** < 6.00

* * *

Assay: Half life in Sprague-Dawley rat at 1 mg/kg, iv or 3 mg/kg, po
Assay type: ADME, organism-based
Settings: Sprague-Dawley, in vivo
RECORDED_METRIC: half-life

Here is how some compounds turned out for half-life.
**Q:** I am curious: what half-life value has been reported for `CC(C)N1C(=O)[C@H](NC(=O)[C@@H](Cc2ccccc2OC(F)(F)F)NC(=O)OC(C)(C)C)COc2ccccc21` ?
**A:** 2 h

**Q:** Try the compound `CC(C)N1C(=O)[C@H](NC(=O)[C@@H](Cc2ccccc2OC(F)(F)F)NC(=O)c2ccccc2)CCc2ccccc21`
**A:** 1.5 h

**Q:** Could you do the same for `CC(C)N1C(=O)[C@H](NC(=O)[C@@H](Cc2c(Cl)cccc2Cl)NC(=O)c2ccc(F)cc2C(F)(F)F)CCc2cc(Cl)ccc21` , please?
**A:** 2.9 h

**Q:** Now give it for `CC(C)N1C(=O)[C@H](NC(=O)[C@@H](Cc2ccccc2OC(F)(F)F)NC(=O)C(C)(C)C)CCc2ccccc21` too.
**A:** 1.8 h

**Q:** Try the compound CC(C)N1C(=O)C(NC(=O)[C@@H](Cc2ccccc2OC(F)(F)F)NC(=O)OC(C)(C)C)CCc2cccnc21 (stereo in doubt; 25)
**A:** 1.4 h

More entries:
**Q:** I am curious: what half-life value has been reported for `CC(C)N1C(=O)[C@H](NC(=O)[C@@H](Cc2ccccc2OC(F)(F)F)NC(=O)c2ccccn2)CCc2ccccc21` ?
**A:** 1.2 h

**Q:** Now consider `CC(C)N1C(=O)[C@H](NC(=O)[C@@H](Cc2c(F)cccc2F)NC(=O)c2ccc(F)cc2C(F)(F)F)CCc2cc(Cl)ccc21` and answer again.
**A:** 2 h

**Q:** Moving on to the next compound: `CC(C)N1C(=O)[C@H](NC(=O)[C@@H](Cc2ccccc2OC(F)(F)F)NC(=O)c2ccc(F)cc2)CCc2ccccc21`
**A:** 2.1 h
